These entries and their values trace back to PubChem BioAssay AID488890.

test: growth inhibition of non-replicating M. tuberculosis (AID 488890); details: Mycobacterium tuberculosis non-replicating, at 25 µM, stronger effect = higher value;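 also: plate controls were DMSO cells for no effect and high antibiotic wells for full effect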
Among all 320,000 compounds or so, about 1,300 (0.41%) were called active. Roughly 3% stayed inconclusive and do not appear here. The list is a sample of the results. Measured potencies and affinities stand elsewhere.
measurement.label: inhibition (%)
Report the value in % with no unit label.

Example cases with answers are listed next.
COc1cccc2sc(NN)nc12 = -6.89
Cc1cccc(C(=O)O/N=C(\N)c2cccc([N+](=O)[O-])c2)c1 = 75
CCc1ccc(OCC(=O)NC(=S)Nc2ccc(F)cc2)c(Br)c1 = 9.95
Cc1cc(C)cc(NC(=O)C2C3C=CC4(O3)C2C(=O)N(CCCN2CCCCC2)C4C(=O)NC2CCCCC2)c1 (stereo unspecified) = 8.2
Cc1cc(Br)ccc1OCC(=O)NNC(=O)Cc1ccccc1 = -15.6

The record that follows has no inhibition shown yet.
Notebook: COC(=O)c1ccc(NC(=O)COc2ccc3c(c2)OCO3)cc1 , inhibition read as 79.3
